Reference source for all entries: PubChem BioAssay (NCI)

experiment: NCI Yeast Anticancer Drug Screen. Data for the cln2 rad14 strain (AID 165);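 also: 0% = growth equal to vehicle treated cultures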; conditions: S. cerevisiae cln2 rad14 strain, at 50.0 µM, hits give high values
Compounds without any hit were thinned out: in the full panel of roughly 79,000, 15% have a hit.
Please provide measured growth inhibition for the entries that follow.
Unit % implied. Number only.

Query: Return reported growth inhibition; argument: CC(=O)c1cccc(NC(=O)N2CCCCC2C)c1 (stereo unspecified)
Result: -13.3

Query: What value of growth inhibition has been recorded for this entry: `CCOC(=O)Cn1c(=O)c2ccccc2c2cc([N+](=O)[O-])ccc21`
Result: 5.95

Query: Report growth inhibition for CC(O)CN1c2ccccc2Sc2ccc(Cl)cc21 (stereo unspecified) please.
Result: 17.1

Query: Fill in: growth inhibition of COC1CC(NC(C)=O)C(O)C(C)O1 (stereo unspecified) is ___
Result: -40

Query: # get_value(readout='growth inhibition', item= `Cc1ccc([N+](=O)[O-])cc1NC(=O)NCCCl` )
Result: -1

Query: Tell me the measured growth inhibition of `CCCCc1ccc(O)c(CN(CC)CC)c1` , please.
Result: -23.6

Query: Requested read-out: growth inhibition. Entry: `O=C(CN1C(=O)c2ccccc2C1=O)Oc1ccccc1`
Result: -9.05

Query: Param item = `CCN=C(NCC)N(CC)CC` ; retrieve measured growth inhibition.
Result: -11.6

Query: Using the record for `Cc1ccc(S(=O)(=O)c2cc3ccccc3oc2=O)cc1` , report its growth inhibition.
Result: -40

Query: growth inhibition; subject: `O=C(N/N=C\c1ccc2c(c1)CCC2)c1cccc2ccccc12`
Result: -6.1

Query: Entry under review: `Brc1c2ccccc2cc2ccccc12` . Reported growth inhibition?
Result: -8.8

Query: Any idea what its growth inhibition is? The compound is CCCN(CCCC(NC(C)=O)C(=O)NCc1ccccc1)C(=O)N(C)N=O (stereo unspecified)
Result: 19.9

Query: Look up growth inhibition for this compound: `CCOC(=O)c1ccc(C)cc1F`
Result: -38.6

Query: // growth inhibition lookup, key: `Clc1ccccc1C1OCCCO1`
Result: -29.8

Query: Any idea what growth inhibition was measured for `CN(C)S(=O)(=O)C=C(c1ccccc1)c1ccccc1` ?
Result: -5.1

Query: For the compound C=C1C(=O)OC2/C=C(\C)C(O)CC(O)C(C)(O)CC(OC(=O)/C(C)=C/C)C12 (stereo unspecified) , what growth inhibition is on record?
Result: 14.1
